Data credit: paper PMC2628580

target desc: rat OR-I7 (Rattus norvegicus, UniProt P23270)
Sequence (P23270 whole entry): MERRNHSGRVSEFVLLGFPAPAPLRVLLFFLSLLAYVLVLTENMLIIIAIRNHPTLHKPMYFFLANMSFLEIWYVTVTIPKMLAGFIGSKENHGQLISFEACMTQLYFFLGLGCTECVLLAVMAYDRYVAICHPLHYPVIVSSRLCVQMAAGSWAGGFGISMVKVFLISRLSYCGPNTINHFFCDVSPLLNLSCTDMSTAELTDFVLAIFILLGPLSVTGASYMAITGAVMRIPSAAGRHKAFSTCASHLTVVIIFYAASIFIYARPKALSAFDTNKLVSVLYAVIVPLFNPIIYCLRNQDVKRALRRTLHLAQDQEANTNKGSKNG
Format: cell-based
conditions used: dose-response by calcium imaging
reported metric: activation of OR-I7 (in words)

test_smiles=O=CCCCC1CCC1 measurement="strongly activated"
test_smiles=O=CCCCCC1CC1 measurement="strongly activated"

* * *

target desc: rat OR-I7 (Rattus norvegicus, UniProt P23270)
Type: cell-based
conditions used: mean ± SEM
reported metric: maximal efficacy relative to 10 μM 1
Form rule: numeric answer, no unit written next to it.

// known answers, use as guide
compound="CCCCCCCC=O [Compound C8, octanal, reference compound]" measurement=0.89
compound=O=CCCCCC1CC1 measurement=0.99
compound="CCCCCCC=O [Compound C7, reference compound]" measurement=0.86

Next item in the queue.
Ask: What value of maximal efficacy relative to 10 μM 1 has been reported for the following compound? O=CCCCC1CCC1
Reply: 1.06
